MEASURED_TARGET: THR beta (Homo sapiens, UniProt P10828)
Construct: expressed in transfected cells; host or cells: HEK293T (ATCC CRL-3216)
Sequence (P10828 whole entry): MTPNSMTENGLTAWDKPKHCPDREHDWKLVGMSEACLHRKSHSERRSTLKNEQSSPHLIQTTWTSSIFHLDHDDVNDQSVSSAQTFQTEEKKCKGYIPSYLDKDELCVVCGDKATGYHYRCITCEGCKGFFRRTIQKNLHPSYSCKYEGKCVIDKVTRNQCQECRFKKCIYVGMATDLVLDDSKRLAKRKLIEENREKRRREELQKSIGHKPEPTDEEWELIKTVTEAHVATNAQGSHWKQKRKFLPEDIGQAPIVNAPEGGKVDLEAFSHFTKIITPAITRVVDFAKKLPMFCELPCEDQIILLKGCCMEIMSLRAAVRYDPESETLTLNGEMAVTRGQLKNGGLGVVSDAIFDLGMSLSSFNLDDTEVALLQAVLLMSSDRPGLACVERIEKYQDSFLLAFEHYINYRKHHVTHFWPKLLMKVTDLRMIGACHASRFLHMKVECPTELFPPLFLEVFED
Sequence (P19793 whole entry partner): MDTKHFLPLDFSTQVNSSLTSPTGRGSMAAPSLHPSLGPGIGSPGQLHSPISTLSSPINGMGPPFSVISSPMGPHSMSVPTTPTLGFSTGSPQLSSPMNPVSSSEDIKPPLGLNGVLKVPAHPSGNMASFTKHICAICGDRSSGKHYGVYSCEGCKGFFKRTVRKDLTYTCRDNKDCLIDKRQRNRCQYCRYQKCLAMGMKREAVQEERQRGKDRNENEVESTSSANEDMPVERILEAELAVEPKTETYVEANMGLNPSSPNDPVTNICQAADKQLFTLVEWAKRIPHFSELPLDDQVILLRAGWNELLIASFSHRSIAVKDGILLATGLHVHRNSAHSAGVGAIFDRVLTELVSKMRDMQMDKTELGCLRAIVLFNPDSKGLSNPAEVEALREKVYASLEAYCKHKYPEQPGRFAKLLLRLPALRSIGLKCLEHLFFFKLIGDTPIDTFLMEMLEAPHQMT
METHOD_NOTES: HEK293T THR beta/RXR luciferase reporter assay (Assay 2)
Assay type: cell-based
MEASUREMENT_CONDITIONS: HEK-293T; Table 5; Assay 2; THRβ; read-out: Activity category Assay 2 THRβ (Emax)
Let's look at some molecules and their measured Emax.

Q: Give reported Emax value for Cc1cc(-n2nc(C#N)c(=O)[nH]c2=O)cc(C)c1Oc1ccc2[nH]cc(C(C)C)c2c1
Result: > 75%

Q: Provide only the value of recorded Emax for Nc1nn(-c2cc(Cl)c(Oc3cc(-c4ccccc4)c(=O)[nH]n3)c(Cl)c2)c(=O)[nH]c1=O
Result: > 75%

Q: # return recorded Emax for entry Cc1c(-n2nc(N)c(=O)[nH]c2=O)cc(Cl)c(Oc2cc(C(C)C)c(=O)[nH]n2)c1Cl
Result: 50 to 75%

Q: Output Emax of Cc1cc(-n2nc(N)c(=O)[nH]c2=O)cc(C)c1Cc1ccc2c(c1)C1(CCCC1)C(=O)N2
Result: 50 to 75%

Q: Identify measured Emax corresponding to CCc1cccc(-c2cc(Oc3c(Cl)cc(-n4nc(N)c(=O)[nH]c4=O)cc3Cl)n[nH]c2=O)c1
Result: > 75%

Q: Fill in reported Emax for this entry: CO[C@H]1C[C@H](c2cc(Oc3c(Cl)cc(-n4nc(N)c(=O)[nH]c4=O)cc3Cl)n[nH]c2=O)C1
Result: < 50%

Moving on to the next molecule.
Q: Indicate its recorded Emax; the molecule in question is CC(C)c1cc(Oc2c(Br)cc(-n3nc(N)c(=O)[nH]c3=O)cc2Br)n[nH]c1=O
Result: > 75%

These data points were gathered from patent US12180192B2.
